Target: DLK (Homo sapiens, UniProt Q12852)
Construct: 10 nM DLK, catalytic domain, Carna Biosiences; purchased Carna Biosciences ('Carna Biosiences' [sic])
Sequence (Q12852 125-366 limits assumed): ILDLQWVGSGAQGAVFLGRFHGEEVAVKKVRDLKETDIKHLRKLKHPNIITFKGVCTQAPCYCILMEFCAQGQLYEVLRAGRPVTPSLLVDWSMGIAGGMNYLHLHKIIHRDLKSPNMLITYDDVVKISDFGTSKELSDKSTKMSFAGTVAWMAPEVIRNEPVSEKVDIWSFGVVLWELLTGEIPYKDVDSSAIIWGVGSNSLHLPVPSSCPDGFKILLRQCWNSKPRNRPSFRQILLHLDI
Experiment: DLK biochemical assay (TR-FRET, MKK7 phosphorylation)
So I've got a bunch of molecules here, and I need their pIC50 values.
Keep it numeric: pIC50 is minus log10 of the concentration in mol/L.

Enquiry: Query (molecule): CC(C)C(c1ccc(C(F)(F)F)nc1)n1cc(-c2cc(-c3ccnc(C(F)(F)F)c3)n3nc(N)nc3c2)cn1 (racemic) [II-28] ; field requested: pIC50
Return: 7.55

Enquiry: Query (molecule): CC(C)C(c1ccc(C(F)(F)F)nc1)n1cc(-c2cc(-c3ccc(C(F)(F)F)nc3)c3nc(N)nn3c2)cn1 (racemic) [II-40] ; field requested: pIC50
Return: 7.36

Enquiry: Query (molecule): CC(C)C(c1ccc(C(F)(F)F)nc1)n1cc(-c2cc(-c3cnc(OCC(F)(F)F)nc3)n3nc(N)nc3c2)cn1 (racemic) [II-85] ; field requested: pIC50
Return: 6.64

Enquiry: Query (molecule): CCC(c1ccc(C(F)(F)F)nc1)n1cc(-c2cc(-c3ccnc(C4(F)CC4)c3)n3nc(N)nc3c2)cn1 (single isomer, unassigned) [II-32] ; field requested: pIC50
Return: 7.18

Enquiry: Query (molecule): Nc1nc2c(-c3ccc(=O)n(C(F)F)c3)cc(-c3cnn(C(c4ccc(C(F)(F)F)nc4)C4CCOCC4)c3)cn2n1 (single isomer, unassigned) [II-155] ; field requested: pIC50
Return: 9.00

Enquiry: Query (molecule): CC(n1cc(-c2cc(-c3cnn(Cc4ccccc4)c3)cc3nc(N)nn23)cn1)C(F)(F)F (stereo not drawn) [II-122] ; field requested: pIC50
Return: 7.41

====

Target: LZK (Homo sapiens)
Construct: 10 nM LZK, catalytic domain, Carna Biosiences in assay buffer; purchased Carna Biosciences ('Carna Biosiences' [sic])
Sequence (O43283 168-409 limits assumed): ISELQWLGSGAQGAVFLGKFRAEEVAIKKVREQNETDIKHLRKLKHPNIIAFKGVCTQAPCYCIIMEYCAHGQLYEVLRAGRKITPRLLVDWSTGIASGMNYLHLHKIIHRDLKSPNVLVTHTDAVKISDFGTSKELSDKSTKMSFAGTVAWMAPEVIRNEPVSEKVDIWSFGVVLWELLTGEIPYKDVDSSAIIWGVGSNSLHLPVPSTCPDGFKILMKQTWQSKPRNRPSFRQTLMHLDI
Test: LZK biochemical assay (TR-FRET, MKK7 phosphorylation)
pIC50: −log10 of the molar value.
Tag: Condition met if measured pIC50 is not below 7, Condition not met if it is.

Enquiry: Test whether the compound CC(C)[C@@H](c1ccc(C(F)(F)F)nc1)n1cc(-c2cc(-c3cnn(CC(F)(F)F)c3)n3nc(N)nc3c2)cn1 [II-140] records pIC50 of 7 or higher.
Return: Condition met

Enquiry: Test whether the compound CCC(c1ccc(C(F)(F)F)nc1)n1cc(-c2cc(-c3ccnc(OC(F)F)c3)c3nc(N)nn3c2)cn1 (single isomer, unassigned) [II-27] records pIC50 of 7 or higher.
Return: Condition met

Enquiry: Test whether the compound CC[C@@H](c1ccccc1)n1cc(-c2cc(-c3cnn(C)c3)c3nc(N)nn3c2)cn1 [II-90] records pIC50 of 7 or higher.
Return: Condition not met

Enquiry: Test whether the compound CC(C)C(c1ccc(C(F)(F)F)nc1)n1cc(-c2cc(-c3ccc(C4(O)CCC4)nc3)n3nc(N)nc3c2)cn1 (single isomer, unassigned) [II-81] records pIC50 of 7 or higher.
Return: Condition met

Enquiry: Test whether the compound CC(C)C(c1ccc(C(F)(F)F)nc1)n1cc(-c2cc(-c3ccc(C4CC(F)(F)C4)nc3)n3nc(N)nc3c2)cn1 (single isomer, unassigned) [II-74] records pIC50 of 7 or higher.
Return: Condition not met

Enquiry: Test whether the compound COc1cc(C(C(C)C)n2cc(-c3cc(-c4cnn(CC(F)(F)F)c4)n4nc(N)nc4c3)cn2)ccn1 (single isomer, unassigned) [II-137] records pIC50 of 7 or higher.
Return: Condition not met
